targetDesc: Recombinant human cathepsin A (Homo sapiens)
Construct: Recombinant human cathepsin A (residues 29-480, with a C-terminal 10-His tag); 10-His (C); purchased R&D Systems 1049-SE
Sequence (P10619 29-312 limits assumed): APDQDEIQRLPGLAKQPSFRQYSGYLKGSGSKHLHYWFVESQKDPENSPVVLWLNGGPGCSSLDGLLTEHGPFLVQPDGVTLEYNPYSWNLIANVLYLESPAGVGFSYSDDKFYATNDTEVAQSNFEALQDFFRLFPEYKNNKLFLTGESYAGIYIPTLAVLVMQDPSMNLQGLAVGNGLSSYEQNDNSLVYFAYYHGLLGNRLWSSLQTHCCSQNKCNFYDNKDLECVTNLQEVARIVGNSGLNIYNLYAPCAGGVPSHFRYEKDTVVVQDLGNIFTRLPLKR
Sequence (P10619 327-480 limits assumed): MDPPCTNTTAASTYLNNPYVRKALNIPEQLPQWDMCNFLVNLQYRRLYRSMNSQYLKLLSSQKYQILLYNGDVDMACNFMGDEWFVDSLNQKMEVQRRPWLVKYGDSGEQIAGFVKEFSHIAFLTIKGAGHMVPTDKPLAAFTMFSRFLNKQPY
assayMethodText: Cathepsin A inhibitory activity
Type: biochemical
testParameters: read-out: Activity (2): Cathepsin A inhibitory activity, IC50 class
pIC50: −log10 of the molar value.
List of pIC50 values.

Some compounds with known pIC50 results, for comparison:
Which value of pIC50 has been reported for Cc1ccc(C)c(-n2nc(C(=O)NC(CCc3ccccc3)CC(=O)O)cc2O)c1 (stereo not shown) in the records? 4.52 to 6.00

Which value of pIC50 has been reported for Cc1ccc(C(CC(=O)O)NC(=O)c2cc(O)n(-c3ccc(F)c(Cl)c3)n2)c(C)c1 (stereo not shown) in the records? 4.52 to 6.00

Which value of pIC50 has been reported for N#Cc1ccc([C@H](CC(=O)O)NC(=O)c2cc(O)n(-c3cccc(F)c3)n2)cc1 in the records? 6.00 to 7.00

Next:
Which value of pIC50 has been reported for COc1ccc(C(CC(=O)O)NC(=O)c2cc(O)n(-c3ccccc3F)n2)c(C)c1 (stereo not shown) in the records? 6.00 to 7.00
